Assay: Investigation of the degradation rate (reactivity index) in solution
Assay type: physicochemical
Conditions: 1-% 0.01M hydrochloric acid in n-propanol, 45 to 60° C., HPLC; relative to Roquinimex defined to 1.0; index 2.0 = 26% per hour
Record Condition met whenever Reactivity index is at 3 or higher; record Condition not met when lower.

Input: Item CN(C(=O)c1c(O)c2ccccc2n(C)c1=O)c1ccccc1 [Roquinimex, reference compound] with Reactivity index of 3 or above?
Output: Condition not met

Input: Item CCc1cccc2c1c(O)c(C(=O)N(CC)c1ccccc1)c(=O)n2C with Reactivity index of 3 or above?
Output: Condition met

Input: Item CCN(C(=O)c1c(O)c2c(Cl)cccc2n(C)c1=O)c1ccccc1 with Reactivity index of 3 or above?
Output: Condition met

Input: Item CCN(C(=O)c1c(O)c2c(SC)cccc2n(C)c1=O)c1ccccc1 with Reactivity index of 3 or above?
Output: Condition met

Input: Item CN(C(=O)c1c(O)c2c(Cl)cccc2n(C)c1=O)c1ccc(F)cc1F with Reactivity index of 3 or above?
Output: Condition not met

Input: Item CCN(C(=O)c1c(O)c2c3c(ccc2n(C)c1=O)OCO3)c1ccccc1 with Reactivity index of 3 or above?
Output: Condition not met

Input: Item Cc1cccc2c1c(O)c(C(=O)N(C)c1ccc(C(F)(F)F)cc1)c(=O)n2C with Reactivity index of 3 or above?
Output: Condition met

* * *

Assay: Solubility in water at room temperature
Assay type: physicochemical
Details: water; room temperature
property: solubility (µg/mL)
// note: answer is a bare numeric in µg/mL

Form field solubility, entry CCN(C(=O)c1c(O)c2c(Cl)cccc2n(C)c1=O)c1ccccc1.[Na] [Compound A sodium] : 138000

Form field solubility, entry CCc1cccc2c1c(O)c(C(=O)N(CC)c1ccccc1)c(=O)n2C.[Li] : 18000

Form field solubility, entry CCc1cccc2c1c(O)c(C(=O)N(CC)c1ccccc1)c(=O)n2C : 300
